All values here come from patent US20160362487A1.

Please go through the items and note down their t½ Ratio (pH 7.4/pH 6.0).
Biological target: T1, human IL-33 (R&D Systems, #3625-IL-010/CF) (human, UniProt O95760 112-270)
T1 construct: Commercial recombinant protein; also called hIL-33; interleukin-33
T1 sequence (looked up): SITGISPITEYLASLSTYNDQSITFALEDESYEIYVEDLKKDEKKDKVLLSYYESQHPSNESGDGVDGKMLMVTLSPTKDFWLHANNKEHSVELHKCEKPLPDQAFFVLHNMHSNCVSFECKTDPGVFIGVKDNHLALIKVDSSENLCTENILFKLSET
Assay: SPR 37C, pH6.0 chase, mAb captured
Answers are plain numbers.

// worked examples, t½ Ratio (pH 7.4/pH 6.0) included
H4H9671P (antibody, human IgG4, V domains shown, Human IgG4 Fc (H4H)) VH: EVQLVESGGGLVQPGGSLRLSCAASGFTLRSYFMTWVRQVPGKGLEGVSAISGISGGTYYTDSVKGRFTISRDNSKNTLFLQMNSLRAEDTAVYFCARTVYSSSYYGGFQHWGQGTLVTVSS VL: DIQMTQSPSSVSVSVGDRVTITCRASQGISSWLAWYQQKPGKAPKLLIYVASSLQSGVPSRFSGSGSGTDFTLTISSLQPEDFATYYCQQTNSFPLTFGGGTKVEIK	5.1
H4H9665P (antibody, human IgG4, V domains shown, Human IgG4 Fc (H4H)) VH: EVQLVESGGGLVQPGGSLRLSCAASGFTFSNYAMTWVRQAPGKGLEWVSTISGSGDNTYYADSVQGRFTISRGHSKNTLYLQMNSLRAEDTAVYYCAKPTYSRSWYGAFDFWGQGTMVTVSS VL: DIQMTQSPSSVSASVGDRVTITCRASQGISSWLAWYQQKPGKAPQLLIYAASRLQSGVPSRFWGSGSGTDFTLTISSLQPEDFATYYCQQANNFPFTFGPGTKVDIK	6.7

Now turn to the next binder.
Input line: Query: t½ Ratio (pH 7.4/pH 6.0); subject: H4H9672P (antibody, human IgG4, V domains shown, Human IgG4 Fc (H4H)) VH: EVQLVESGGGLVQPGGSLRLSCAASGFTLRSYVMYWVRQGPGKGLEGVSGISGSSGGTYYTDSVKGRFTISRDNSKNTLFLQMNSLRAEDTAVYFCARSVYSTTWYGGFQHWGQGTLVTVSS VL: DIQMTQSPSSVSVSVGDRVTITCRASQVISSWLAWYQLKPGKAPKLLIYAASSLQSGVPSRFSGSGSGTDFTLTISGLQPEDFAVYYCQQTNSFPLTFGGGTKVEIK
Output line: 4.7
